Target: GORASP1, Q9BQQ3
Sequence (Q9BQQ3 1-208): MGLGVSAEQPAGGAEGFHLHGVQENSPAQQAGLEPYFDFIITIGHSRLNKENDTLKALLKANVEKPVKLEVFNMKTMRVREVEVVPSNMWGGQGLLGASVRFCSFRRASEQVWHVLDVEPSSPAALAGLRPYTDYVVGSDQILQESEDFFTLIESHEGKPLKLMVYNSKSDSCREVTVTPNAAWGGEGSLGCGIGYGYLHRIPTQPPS
Experiment: holdup assay
Design: key: below the threshold = too weak to quantify, mostly under pKd 3.1 to 4
Conditions: plain residues with an end cap or a label only (N-terminal biotin on a linker: ado-ado)
Test Readout: pKd

[[record]]
binder = "TISFTQTSQF [SLC1A1, P43005]"
observed_value = "below the threshold"

[[record]]
binder = "NTANRRTTPV [CACNG2, Q9Y698]"
observed_value = "below the threshold"

[[record]]
binder = "ARSAAASNYV [CLDN4, O14493]"
observed_value = 3.69

[[record]]
binder = "SVTSERETNI [SLC16A7, O60669]"
observed_value = "below the threshold"

